# Test system: ABL2
# appliedConditions: concentration: 1 μM, replicates: in singlicate; n = 1;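 further: KINOMEscan kinase panel screen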
attributeMeasured: %Inh
Quote the value and follow it with the unit of measurement.

Worked cases, %Inh given:
The reported %Inh of the compound `COC(=O)c1c(-c2ccccc2)c2cc(C(=O)O)ccc2c(=O)n1Cc1ccccc1` was 7%

// `CS(=O)(=O)c1ccc(-c2c(-c3ncn[nH]3)sc(N3CCOCC3)c2C#N)cc1` : %Inh value = 7%

***
Notebook: O=C(Nc1n[nH]c2nc(-c3nccs3)c(Br)cc12)C1CC1 [SB-742251] , %Inh read as 7%

----------
# System: CDKL1
# appliedConditions: concentration: 1 μM, replicates: in singlicate; n = 1
param class (str): category from %Inh; see ranges bin A = under 10%, bin B = from 10% up to 40%, bin C = 40% and over

Answered examples (2):
Quick check: band for `Cc1cccc(-c2nc(Nc3ccncc3)c3ccccc3n2)n1`
bin C

Category lookup for the molecule `O=C(Nc1n[nH]c2cc(-c3cccc(F)c3F)ccc12)C1CC1`
bin B

As a next step, examine the molecule that follows.
Returns: class label. Input: `O=C(O)COc1ncnc2cc(-c3ccc4[nH]ncc4c3)sc12`
bin B

----------
Measured %Inh by item
# System: EPHB3
# appliedConditions: concentration: 1 μM, replicates: in singlicate; n = 1
State just the number; it will be interpreted in %.

Consider the following illustrative entries.
Per the records, this molecule ( Cc1cccc(-c2cc(Nc3ccncc3)c3ccccc3n2)n1 [GSK223675] ) has %Inh equal to 0

Reported %Inh ( CCn1c(-c2ccccn2)nc2cnccc21 [SB-736398] ) = 12

molecule O=C(Nc1n[nH]c2nc(-c3nccs3)c(Br)cc12)C1CCCC1 [SB-742609] , %Inh observed: 26

For COc1cc2nccc(Nc3ccc(NC(=O)c4ccc(C)cc4)c(O)c3)c2cc1OC.Cl [GW440132] the molecule record lists %Inh as 12

Reported %Inh for COc1ccc(Nc2nccc(-c3cccc(NC(=O)c4cc5cc(F)ccc5[nH]4)c3)n2)cc1 [GSK1229782] was 25

// next item, %Inh requested
Recorded %Inh (molecule `Cn1ccc2ncnc(Oc3cccc(C(=O)Nc4ccccc4)c3)c21` ): 0

----------
# Test system: PIK3CA
# appliedConditions: concentration: 1 μM, replicates: in singlicate; n = 1
attributeMeasured: %Inh (%)
Numeric answer only, unit % assumed.

Solved cases below.
Sample Cc1nnc(-c2ccc3occ(-c4ccc(S(C)=O)cc4)c3c2)[nH]1 (centres unmarked) ; %Inh observed: 9

Form field %Inh, entry Cl.c1ccc(-c2n[nH]cc2-c2ccnc(-c3ccc(CN4CCOCC4)cc3)c2)nc1 [GW776245] : 0

Form: compound = Cc1ccc(NC(=O)Nc2cccc(Cl)c2)cc1-c1ccc(C(=O)Nc2ccncc2)cc1 [GSK1398468] ; %Inh = 8

Summary for this compound, Cc1c(O)cccc1Nc1ccnc2ccc(C(F)(F)F)cc12.Cl [GW466413] : %Inh is 0

# %Inh (compound: CSc1nn2c(=O)cc(N3CCOCC3)nc2n1Cc1cccc(C(F)(F)F)c1C [GSK2363608] ) is 9

Quick note, %Inh for `Fc1cccc(COc2nnc(-c3ccc4c(c3)CCO4)o2)c1` landed at 0

%Inh recorded for this compound, `CC(C)(C)c1ccc(C(=O)Nc2cn3cc(Cl)ccc3n2)cc1` , is 0

Lab book: %Inh of Cc1cccc(-c2nc(Nc3cccc(C(N)=O)c3)c3ccccc3n2)n1 [GW876019] noted as 0

Could you now consider this next compound?
%Inh recorded for this compound, COc1cc2ncn(-c3cc(OCC4CCCO4)c(C(N)=O)s3)c2cc1OC (centres unmarked) [GSK204607] , is 0
